Tested on: A549-hACE2 cells
condition_label: human
List of CC50 values.

Consider the following illustrative entries.
- compound: "Cc1cc(/C=C/C#N)cc(C)c1Nc1ccnc(Nc2ccc(C#N)cc2)n1"
  measured_endpoint: "CC50"
  test_result: "14.6 µM"
- compound: "O=C(NCc1c(F)cc(F)cc1F)c1cn2c(c(O)c1=O)C(=O)N1[C@H]3CC[C@H](C3)O[C@@H]1C2"
  measured_endpoint: "CC50"
  test_result: "> 50 µM"
- compound: "C=CC(=O)N1CCC[C@@H](n2nc(-c3ccc(Oc4ccccc4)cc3)c3c(N)ncnc32)C1"
  measured_endpoint: "CC50"
  test_result: "> 50 µM"
- compound: "Cc1cccc(C)c1OCC(=O)N[C@@H](Cc1ccccc1)[C@@H](O)C[C@H](Cc1ccccc1)NC(=O)[C@H](C(C)C)N1CCCNC1=O"
  measured_endpoint: "CC50"
  test_result: "31.5 µM"
- compound: "Nc1ccn(C[C@@H](CO)OCP(=O)(O)O)c(=O)n1"
  measured_endpoint: "CC50"
  test_result: "> 50 µM"

Return reported CC50. Input compound: CCN(CC)CCCC(C)Nc1ccnc2cc(Cl)ccc12 (stereo not drawn)
> 50 µM

Return reported CC50. Input compound: CC(C)c1nc(CN(C)C(=O)N[C@@H](CCN2CCOCC2)C(=O)N[C@H](CC[C@H](Cc2ccccc2)NC(=O)OCc2cncs2)Cc2ccccc2)cs1 [Cobicistat]
47.3 µM

Return reported CC50. Input compound: CC(C)CN(C[C@@H](O)[C@H](Cc1ccccc1)NC(=O)O[C@H]1CCOC1)S(=O)(=O)c1ccc(N)cc1
> 50 µM

Return reported CC50. Input compound: COC[C@H]1C[C@@H](c2ncc(-c3ccc4c(c3)COc3cc5c(ccc6nc([C@@H]7CC[C@H](C)N7C(=O)[C@@H](NC(=O)OC)C(C)C)[nH]c65)cc3-4)[nH]2)N(C(=O)[C@H](NC(=O)OC)c2ccccc2)C1
> 50 µM

Return reported CC50. Input compound: Nc1ccn([C@@H]2O[C@@](CO)(CCl)[C@@H](O)[C@H]2F)c(=O)n1
> 50 µM

Return reported CC50. Input compound: COC(=O)N[C@H](C(=O)N[C@@H](Cc1ccccc1)[C@@H](O)CN(Cc1ccc(-c2ccccn2)cc1)NC(=O)[C@@H](NC(=O)OC)C(C)(C)C)C(C)(C)C
> 50 µM

Return reported CC50. Input compound: CC1=CC[C@H](C(=O)N(c2cc(C#CC(C)(C)C)sc2C(=O)O)[C@H]2CC[C@](O)(CO[C@H]3CCOC3)CC2)CC1
> 50 µM

Return reported CC50. Input compound: COC(=O)N[C@H](C(=O)N1CC2(CC2)C[C@H]1c1ncc(-c2ccc3c(c2)C(F)(F)c2cc(-c4ccc5nc([C@@H]6[C@H]7CC[C@H](C7)N6C(=O)[C@@H](NC(=O)OC)C(C)C)[nH]c5c4)ccc2-3)[nH]1)C(C)C
> 50 µM

Return reported CC50. Input compound: CCC(CC)O[C@@H]1C=C(C(=O)O)C[C@H](N)[C@H]1NC(C)=O [Oseltamivir carboxylate]
> 50 µM

Return reported CC50. Input compound: NC(=O)c1ncn([C@@H]2O[C@H](CO)[C@@H](O)[C@H]2O)n1
> 50 µM

Return reported CC50. Input compound: CC(C)(C)NC(=O)[C@@H]1CN(Cc2cccnc2)CCN1C[C@@H](O)C[C@@H](Cc1ccccc1)C(=O)N[C@H]1c2ccccc2C[C@H]1O
> 50 µM

Return reported CC50. Input compound: CCOC(=O)/C=C/[C@H](C[C@@H]1CCNC1=O)NC(=O)[C@@H](CC(=O)[C@@H](NC(=O)c1cc(C)on1)C(C)C)Cc1ccc(F)cc1
> 50 µM

Return reported CC50. Input compound: CC(C)OC(=O)[C@H](C)N[P@](=O)(OC[C@H]1O[C@@H](n2ccc(=O)[nH]c2=O)[C@](C)(F)[C@@H]1O)Oc1ccccc1
> 50 µM

Return reported CC50. Input compound: Nc1nc(=O)n([C@@H]2CS[C@H](CO)O2)cc1F
> 50 µM

Return reported CC50. Input compound: CC#CC(=O)N1CC[C@@H](n2c(=O)n(-c3ccc(Oc4ccccc4)cc3)c3c(N)ncnc32)C1
> 50 µM

Return reported CC50. Input compound: CC(C)OC(=O)[C@H](C)N[P@](=O)(CO[C@H](C)Cn1cnc2c(N)ncnc21)Oc1ccccc1 [Tenofovir alafenamide]
> 50 µM

Return reported CC50. Input compound: CC(C)CN(C[C@@H](O)[C@H](Cc1ccccc1)NC(=O)O[C@H]1CO[C@H]2OCC[C@H]21)S(=O)(=O)c1ccc(N)cc1
> 50 µM
